tested on: CSM14.1 neuronal cells; experiment: Cell survival assay (thapsigargin-treated cells, CELLTITER-GLO luminescence); format: cell-based; details: compound 2 hrs before about 15 μM thapsigargin, overnight
pEC50: −log10 of the molar value.
property: pEC50

Sample records with pEC50:
cpd smiles | result
Cc1ccc2cccc(C(=O)Nc3cccc(F)c3)c2n1 | 4.70 to 5.00
Cc1ccc2cccc(C(=O)Nc3ccc(Br)s3)c2n1 | 5.00 to 6.00
Cc1ccc2cccc(C(=O)Nc3ccc(C4CC4)s3)c2n1 | 5.00 to 6.00
Cc1ccc2cccc(C(=O)Nc3ccc(OC(C)C)cc3)c2n1 | 5.00 to 6.00
Cc1ccc2cccc(C(=O)Nc3ccc(Cl)cc3)c2n1 | 5.00 to 6.00

Batch of 5 compounds: report pEC50 for each.
1. Cc1ccc2cccc(C(=O)Nc3cc(Br)cs3)c2n1
2. Cc1ccc2cccc(C(=O)Nc3ccc(N(C)C)cc3)c2n1
3. Cc1ccc(NC(=O)c2cccc3ccc(C)nc23)cc1
4. Cc1ccc2cccc(C(=O)Nc3ccc(C)s3)c2n1
5. Cc1ccc2cccc(C(=O)Nc3cccs3)c2n1

Return:
1. 5.00 to 6.00
2. > 6.00
3. 5.00 to 6.00
4. 5.00 to 6.00
5. 5.00 to 6.00

====

Tested on: Ob/ob mice
Experiment: Effect of a SERCA agonist on the level of blood glucose
Format: in vivo
Settings: Mus musculus, ip, 96 h, 50 mg/kg i.p. once a day for 5 days, fasting glucose at baseline and 4 days after administration, read-out: Glucose level reduction
Method: Ob/ob mice (10 weeks old, n=7) were intraperitoneally (i.p.) injected with 100 μL of a solution containing 0 (vehicle) or 50 mg/kg of a test compound once a day for a total of 5 days. Fasting glucose was measured at baseline and 4 days after the administration of the test compound. Glucose levels were measured in blood samples drawn from the tail vein using a handheld glucose sensor. […]
property: inhibition in vivo at 50 mg/kg

molecule | system | result
Cc1ccc2cccc(C(=O)Nc3ccc(C)s3)c2n1 [B3] | Ob/ob mice | 10 to 20%

Hey, can you go through the list below and give me inhibition in vivo at 50 mg/kg for every item?
1. Cc1ccc2cccc(C(=O)Nc3cccc(F)c3)c2n1 [A3]
2. Cc1ccc2cccc(C(=O)Nc3ccc(Br)s3)c2n1 [B2]
3. Cc1ccc2cccc(C(=O)Nc3ccc(C4CC4)s3)c2n1 [B5]
4. Cc1ccc2cccc(C(=O)Nc3ccc(OC(C)C)cc3)c2n1 [A1]
5. Cc1ccc2cccc(C(=O)Nc3cccs3)c2n1 [B4]

Return:
1: 10 to 20%; 2: 21 to 30%; 3: 10 to 20%; 4: > 30%; 5: > 30%

====

For each entry below, report its inhibition in vivo at 50 mg/kg value.
Test system: Ob/ob mice
Assay: Effect of a SERCA agonist on the level of blood glucose
Format: in vivo
Details: Mus musculus, ip, 96 h, 50 mg/kg i.p. once a day for 5 days, fasting glucose at baseline and 4 days after administration, read-out: Glucose level reduction
Method: Ob/ob mice (10 weeks old, n=7) were intraperitoneally (i.p.) injected with 100 μL of a solution containing 0 (vehicle) or 50 mg/kg of a test compound once a day for a total of 5 days. Fasting glucose was measured at baseline and 4 days after the administration of the test compound. Glucose levels were measured in blood samples drawn from the tail vein using a handheld glucose sensor. […]

As a guide, the following entries are already answered.
molecule | inhibition in vivo at 50 mg/kg
Cc1ccc2cccc(C(=O)Nc3cc(Br)cs3)c2n1 [B1] | > 30%
Cc1ccc(NC(=O)c2cccc3ccc(C)nc23)cc1 [A5] | 21 to 30%
Cc1ccc2cccc(C(=O)Nc3ccc(Cl)cc3)c2n1 [A2] | > 30%

// sample Cc1ccc2cccc(C(=O)Nc3ccc(N(C)C)cc3)c2n1 [A4] , its inhibition in vivo at 50 mg/kg was 21 to 30%
